# test details: Human HepG2 cell viability assay in 384 well format
# Format: toxicity, cell-based
# Design: dose 125 nL, time 70.5 hour; concentration not given beside the values
# condition details: HepG2 cells, read-out: Inhibition
The reader will find reported cytotoxicity at 70.5 h values listed item by item below.
Form entry: value (%) — number only.

Field: example entries. Status: answers known.
molecule: O=C(NCCC1COc2ccccc2O1)c1ccc(-c2cn[nH]c2)nc1 (centres undefined)
readout units: %
cytotoxicity at 70.5 h: 4.75

molecule: CCc1nnc(SCC(=O)N2CCc3[nH]nc(C4CCC4)c3C2)o1
readout units: %
cytotoxicity at 70.5 h: -2.31

molecule: Cn1cnc(S(=O)(=O)N2CC3(CCN(CC4CC4)C3)C2)c1
readout units: %
cytotoxicity at 70.5 h: 14.6

molecule: CC1(C)COCCN1C(=O)Cc1cc(Cl)c2c(c1)OCCO2
readout units: %
cytotoxicity at 70.5 h: 0.881

molecule: c1ncn(Cc2nnc(C3CCN(CC4CC4)CC3)n2C2CC2)n1
readout units: %
cytotoxicity at 70.5 h: -15.3

molecule: CCOCC1CN(CCOc2ccc(Cl)cc2)Cc2c1cnn2C (centres undefined)
readout units: %
cytotoxicity at 70.5 h: 2.89

molecule: O=C(O)c1ccc(N2CCC(Oc3ccc(Cl)cc3)CC2)nc1
readout units: %
cytotoxicity at 70.5 h: -12.3

molecule: CN(C)C(=O)N1CC[C@]2(O)CCN(C(=O)c3ccc(C#N)nc3)C[C@@H]2C1
readout units: %
cytotoxicity at 70.5 h: 3.74

q: cytotoxicity at 70.5 h lookup needed for O=C1NC2(CCN(Cc3ccoc3)CC2)CC1c1ccncc1 (centres undefined) , thanks.
a: 11

q: cytotoxicity at 70.5 h lookup needed for CC(=O)N1C[C@@H]2CN(S(=O)(=O)C3CC3)CCO[C@@H]2C1 , thanks.
a: -1.33

q: cytotoxicity at 70.5 h lookup needed for CCC(C(=O)N1CCN(C(=O)N2CCOCC2)CC1)n1cccn1 (centres undefined) , thanks.
a: -5.93

q: cytotoxicity at 70.5 h lookup needed for Cc1ccc(NC(=O)NC(C)Cn2cccn2)cc1 (centres undefined) , thanks.
a: -11.9

q: cytotoxicity at 70.5 h lookup needed for NC(=O)c1cc(-n2cc(-c3cccc(C(=O)O)c3)cn2)cs1 , thanks.
a: -9.85

q: cytotoxicity at 70.5 h lookup needed for COc1cc(N2CCC(c3nccn3Cc3cccnc3)CC2)ncn1 , thanks.
a: -5.38

q: cytotoxicity at 70.5 h lookup needed for O=C(CC1CCN(c2cccnn2)CC1)Nc1nncs1 , thanks.
a: -5.72

All figures here come from ChEMBL document CHEMBL3507680.
